- assay system: bovine brain tubulin (Bos taurus, UniProt P81947+Q6B856)
- Construct: MAP-rich bovine brain tubulin (99% purity), Hela cell tubulin (90% purity); purchased Cytoskeleton (Denver, Colo.); host or cells: bovine brain
- run description: Competition of [3H]-Probe 1 photolabeling of tubulin
- Type: binding
- settings: Room Temp.; 2.5 μM tubulin, 0.25 μM radiolabeled Probe 1, 100 μM competitor; control (no competitor) = 100
measurement label: Probe 1 photolabeling of tubulin (% of no-competitor control)
Number first, unit second: that is the form wanted.

Which value of Probe 1 photolabeling of tubulin (% of no-competitor control) has been reported for "CC[C@H](C)[C@@H]([C@@H](CC(=O)N1CCC[C@H]1[C@H](OC)[C@@H](C)C(=O)N[C@@H](Cc1ccccc1)c1nccs1)OC)N(C)C(=O)[C@@H](NC(=O)[C@H](C(C)C)N(C)C)C(C)C" in the records?
13 ± 3%

Which value of Probe 1 photolabeling of tubulin (% of no-competitor control) has been reported for "CN[C@H](C(=O)N[C@H](C(=O)N(C)[C@H](/C=C(\C)C(=O)O)C(C)C)C(C)(C)C)C(C)(C)c1ccccc1" in the records?
27 ± 4%

Which value of Probe 1 photolabeling of tubulin (% of no-competitor control) has been reported for "CC[C@]1(O)C[C@@H]2CN(CCc3c([nH]c4ccccc34)[C@@](C(=O)OC)(c3cc4c(cc3OC)N(C)[C@H]3[C@@](O)(C(=O)OC)[C@H](OC(C)=O)[C@]5(CC)C=CCN6CC[C@]43[C@@H]65)C2)C1" in the records?
28 ± 1%

Which value of Probe 1 photolabeling of tubulin (% of no-competitor control) has been reported for "CN[C@H](C(=O)N[C@H](C(=O)N(C)[C@H](/C=C(\C)C(=O)O)C(C)C)C(C)(C)C)C(C)(C)c1ccc(C(=O)c2ccccc2)cc1" in the records?
12 ± 7.8%

Which value of Probe 1 photolabeling of tubulin (% of no-competitor control) has been reported for "CC(=O)O[C@H]1C(=O)[C@@]2(C)[C@H]([C@H](OC(=O)c3ccccc3)[C@]3(O)C[C@H](OC(=O)[C@H](O)[C@@H](NC(=O)c4ccccc4)c4ccccc4)C(C)=C1C3(C)C)[C@]1(OC(C)=O)CO[C@@H]1C[C@@H]2O" in the records?
83 ± 41%
